assay-notes: chemical genetic growth profiling, strain panel (AID 1159580);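 further: tested at 20 µM; growth read once vehicle control cultures reached saturation at 30 °C; 1 = growth at the plate median or of vehicle wells; lower values mean less growth of the strain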
experimental-parameters: S. cerevisiae deletion strains, growth OD, locus YKL068W, hits give low values
About 2,000 (36%) of roughly 5,500 compounds were called active. Roughly 18% stayed inconclusive and do not appear here. Some of the results follow.
Attribute: normalized growth
The answer should be written as a number, with no unit following it.

Some solved entries appear below for comparison.
[
  {
    "molecule": "CCCCCCCCCCCCCC(=O)OC1C(C)C2(O)C(C=C(CO)CC3(O)C(=O)C(C)=CC32)C2C(C)(C)C12OC(C)=O (centres undefined)",
    "normalized growth": 1.01
  },
  {
    "molecule": "NCC[C@@H](O)C(=O)N[C@@H]1C[C@H](N)[C@@H](O[C@H]2O[C@H](CN)[C@@H](O)[C@H](O)[C@H]2O)[C@H](O)[C@H]1O[C@H]1O[C@H](CO)[C@@H](O)[C@H](N)C1O (some centres undefined)",
    "normalized growth": 1.01
  },
  {
    "molecule": "Cc1ccc(C(=O)c2ccc(CC(=O)O)n2C)cc1",
    "normalized growth": 0.99
  }
]

### Prompt Recall and state the measured normalized growth for CCCCCCCCCCCC(=O)OCC(COP(=O)(O)OCC(O)COP(=O)(O)OCC(COC(=O)CCCCCCCCCCC)OC(=O)CCCCCCCCCCC)OC(=O)CCCCCCCCCCC (centres undefined) .
### Response 1.03

### Prompt Identify measured normalized growth associated with CC(C)c1nc(N(C)S(C)(=O)=O)nc(-c2ccc(F)cc2)c1/C=C/[C@@H](O)C[C@@H](O)CC(=O)O
### Response 1.03

### Prompt Given O=C1CCCN1CC#CCN1CCCC1 , respond with its normalized growth.
### Response 1

### Prompt Given C[C@]12CCC3c4ccc(OC(=O)CCC(=O)O)cc4CCC3C1CCC2=O (some centres undefined) , respond with its normalized growth.
### Response 1

### Prompt Given COC(=O)/C(C)=C\CC12OC(C)(C)C3CC(C=C4C(=O)c5c(OC)c6c(c(CC=C(C)C)c5OC431)OC(C)(CCC=C(C)C)C=C6)C2=O (centres undefined) , respond with its normalized growth.
### Response 0.992

### Prompt Answer with the recorded normalized growth for the molecule listed here: NCCCCNCCCN
### Response 0.977

### Prompt State its normalized growth for this molecule: COC[C@]12CN(C=O)C3[C@@H]4[C@H](OC)C1[C@]3(C1CC3(O)C(OC)C(O)C4(OC(C)=O)C1C3OC(=O)c1ccccc1)[C@@H](OC)C[C@H]2O (some centres undefined)
### Response 1

### Prompt Could you please provide reported normalized growth for CC(C)/C(O)=C1/C(=O)O[C@@H](c2ccoc2)[C@]2(C)C(O)[C@@H](O)[C@@]34OC5(C)OC67CC(C)(C(O)[C@]6(O)[C@@H](O)[C@]3(O5)C12)[C@H](CC(=O)O)[C@]74C (some centres undefined) ? Thanks!
### Response 0.999

====

Measured normalized growth accompanies every entry in the list below.
assay-notes: chemical genetic growth profiling, strain panel (AID 1159580)
experimental-parameters: S. cerevisiae deletion strains, growth OD, locus YJL157C, strain FAR1, hits give low values
The whole screen tested about 5,500 compounds, of which about 2,000 (36%) were called active. Another 18% or so got no clear call; they are omitted. The list shows a part of the results.
Number, no unit, nothing else.

Reference set (5 entries):
[
  {
    "molecule": "O=S(=O)(NCc1cc(Cl)cc(Cl)c1)c1cc(C(F)(F)F)cc(C(F)(F)F)c1",
    "measure-name": "normalized growth",
    "value": 0.926
  },
  {
    "molecule": "CC1CCC(C(C)C)C(N(Cc2ccccc2)C(=O)c2ccccc2)C1 (stereo unspecified)",
    "measure-name": "normalized growth",
    "value": 0.979
  },
  {
    "molecule": "Cc1c(S(=O)(=O)Nc2cccc([N+](=O)[O-])c2)sc2ccc(Cl)cc12",
    "measure-name": "normalized growth",
    "value": 1.01
  },
  {
    "molecule": "C[C@@H](Nc1ncnc2sc3c(c12)CCCC3)c1ccccc1",
    "measure-name": "normalized growth",
    "value": 0.916
  },
  {
    "molecule": "Clc1ccc(Oc2ccnc3cc(Cl)ccc23)cc1",
    "measure-name": "normalized growth",
    "value": 0.683
  }
]

Next molecule, normalized growth to be filled in.
### Prompt Tell me its normalized growth given Cc1ccccc1/C=C/c1c[nH]c2ccccc12 as the entry.
### Response 0.895

====

assay-notes: chemical genetic growth profiling, strain panel (AID 1159580);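 further: tested at 20 µM; growth read once vehicle control cultures reached saturation at 30 °C; 1 = growth at the plate median or of vehicle wells; lower values mean less growth of the strain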
experimental-parameters: S. cerevisiae deletion strains, growth OD, locus YNR052C, strain pop2, hits give low values
Screen size: about 5,500 compounds; about 2,000 (36%) were called active. Not shown: some 18% with an inconclusive outcome. The list shows a part of the results.
Each entry below carries its reported normalized growth.
Format: numeric value only, no unit, no commentary.

Study these solved cases before continuing.
[
  {
    "compound": "Cc1cc(/C=C/c2ccc3cc(N(C)C)ccc3[n+]2C)c(C)n1-c1ccccc1",
    "normalized growth": 0.731
  },
  {
    "compound": "COP(=S)(OC)Oc1ccc([N+](=O)[O-])cc1",
    "normalized growth": 0.984
  },
  {
    "compound": "COc1ccc(CCC(=O)c2c(O)cc(O[C@@H]3O[C@H](CO)C(O)[C@H](O)C3O[C@@H]3O[C@@H](C)[C@H](O)[C@@H](O)[C@H]3O)cc2O)cc1O (some centres undefined)",
    "normalized growth": 0.993
  }
]

### Prompt Fill in normalized growth for record CC(=O)O[C@H]1C[C@@]2(C)[C@@H](C[C@@H](O)C3[C@]2(C)CC[C@H]2[C@H](C)[C@H](O)CC[C@]32C)/C1=C(/CCC=C(C)C)C(=O)O (some centres undefined)
### Response 1.03

====

assay-notes: chemical genetic growth profiling, strain panel (AID 1159580);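 further: tested at 20 µM; growth read once vehicle control cultures reached saturation at 30 °C; 1 = growth at the plate median or of vehicle wells; lower values mean less growth of the strain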
experimental-parameters: S. cerevisiae deletion strains, growth OD, strain TSCII
Hit rate of the full screen: of about 5,500 compounds, about 2,000 (36%) were called active. Not shown: some 18% with an inconclusive outcome. No stated cut-off is given here; in the data, active means normalized growth mostly below about 0.91 (no sharp cut-off); inconclusive means no clear call, values can overlap the other calls; inactive means mostly above about 0.92. The list shows a part of the results.
Bench note: report the call from 1 (yes) = active, 0 (no) = inactive

### Prompt What classification did Cc1ccccc1/C=C/c1c[nH]c2ccccc12 end up with in this test?
### Response 0 (no)

### Prompt For COc1ccc(-c2cn3cc(C)ccc3n2)cc1 , what call appears in the results of this test?
### Response 0 (no)

### Prompt Hello, I am checking results. What call was entered for Clc1cccc(Nc2ncc(-c3ccc4c(c3)OCCCO4)s2)c1 ?
### Response 0 (no)

### Prompt Look up the recorded call for FC(F)(F)c1cc(NC(=S)SCCSC(=S)Nc2cc(C(F)(F)F)cc(C(F)(F)F)c2)cc(C(F)(F)F)c1 in this test.
### Response 0 (no)

### Prompt What classification did Clc1ccccc1-c1csc(-c2ccncc2)n1 end up with in this test?
### Response 0 (no)

### Prompt Test call for this compound, please: Clc1ccccc1-c1csc(-c2cccnc2)n1
### Response 1 (yes)

### Prompt Each compound tested received a call. Report the one for N#CC(C#N)=Cc1c(-c2ccccc2Cl)[nH]c2ccccc12 .
### Response 0 (no)

====

assay-notes: chemical genetic growth profiling, strain panel (AID 1159580);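 further: tested at 20 µM; growth read once vehicle control cultures reached saturation at 30 °C; 1 = growth at the plate median or of vehicle wells; lower values mean less growth of the strain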
experimental-parameters: S. cerevisiae deletion strains, growth OD, locus YOL006C, strain TOP1, hits give low values
Screen size: about 5,500 compounds; about 2,000 (36%) were called active. Roughly 18% stayed inconclusive and do not appear here. This is one part of the list.
Measured normalized growth accompanies every entry in the list below.

Some solved cases for reference:
[
  {
    "molecule": "C1N2CN3CN1CN(C2)C3",
    "normalized growth": "0.931 (inactive)"
  },
  {
    "molecule": "CN1CCC[C@@H]1CCO[C@](C)(c1ccccc1)c1ccc(Cl)cc1",
    "normalized growth": "0.417 (active)"
  }
]

### Prompt Answer with reported normalized growth of NCC[C@@H](O)C(=O)N[C@@H]1C[C@H](N)[C@@H](O[C@H]2O[C@H](CN)[C@@H](O)[C@H](O)[C@H]2O)[C@H](O)[C@H]1O[C@H]1O[C@H](CO)[C@@H](O)[C@H](N)C1O (some centres not stated)
### Response 0.932 (inactive)

### Prompt Give the value of normalized growth reported for the following: Cc1cc(/C=C/c2ccc3cc(N(C)C)ccc3[n+]2C)c(C)n1-c1ccccc1
### Response 0.382 (active)

### Prompt Give normalized growth for NC1(C(=O)O)CCCC1
### Response 0.987 (inactive)

### Prompt Indicate the recorded normalized growth value for this molecule: O=S(=O)(NCCc1ccncc1)c1cc(C(F)(F)F)cc(C(F)(F)F)c1
### Response 0.976 (inactive)

### Prompt Give the value of normalized growth reported for the following: COc1ccc(CCC(=O)c2c(O)cc(O[C@@H]3O[C@H](CO)C(O)[C@H](O)C3O[C@@H]3O[C@@H](C)[C@H](O)[C@@H](O)[C@H]3O)cc2O)cc1O (some centres not stated)
### Response 0.929 (inactive)
